# Test system: biotinyl-Phe-oxazolone
# protocol summary: self-aminoacylation, catalytic enhancement (BFO) (fold over background); higher = more active; k-Seq, kA / k0A0; sequences stand for … in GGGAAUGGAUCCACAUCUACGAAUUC…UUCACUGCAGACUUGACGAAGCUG
This sample holds only a part of the variants without activity.
The reader will find reported self-aminoacylation values listed item by item below.

# sequence text, self-aminoacylation
records = [
    ("AAGUUUGCGAAUAGUUGCAAG [Fam3.1 aminoacylation ribozyme variant]", 0.975),
    ("AUUACCCUGGUCAACGCGUGA [Fam2.1 aminoacylation ribozyme variant]", 72.1),
    ("CUCCUUCAAACAAUCGGACUG [Fam1A.1 aminoacylation ribozyme variant]", 12.9),
    ("AUUCACCUACGUCAUCAGGUG [Fam2.2 aminoacylation ribozyme variant]", 9.1),
    ("UUUCAGCUAGGUCAUCGGGUG [Fam2.2 aminoacylation ribozyme variant]", 39),
    ("AUUCACCUAGGUCGUCGCGUG [Fam2.2 aminoacylation ribozyme variant]", 39),
    ("CUACUGCAAACAAUCGGUCUC [Fam1A.1 aminoacylation ribozyme variant]", 0.785),
    ("AUUCCCCUGGGUCAUCGGGUG [Fam2.2 aminoacylation ribozyme variant]", 107),
    ("AUUACGCUGGUCUUCGAGUGA [Fam2.1 aminoacylation ribozyme variant]", 12.9),
    ("CUACUUCCAACAAUCGGUGUG [Fam1A.1 aminoacylation ribozyme variant]", 0.789),
    ("AUUACCCUGGUGAGCGAGUGA [Fam2.1 aminoacylation ribozyme variant]", 22.2),
    ("AGGUUUGCUCAUAGUCGCAAG [Fam3.1 aminoacylation ribozyme variant]", 2.95),
    ("AUCCACCUAGGUCAUCGGGUA [Fam2.2 aminoacylation ribozyme variant]", 275),
    ("AUUACCAUUGUCAUCGAGUGA [Fam2.1 aminoacylation ribozyme variant]", 40.4),
    ("AUGUUUGCUAAUCGUCGCAAG [Fam3.1 aminoacylation ribozyme variant]", 1.59),
    ("AUUACCCAGGUCAUUGAGUGA [Fam2.1 aminoacylation ribozyme variant]", 53.1),
    ("CUACUUCAAACAAUUGAUCUG [Fam1A.1 aminoacylation ribozyme variant]", 0.576),
    ("AAGUUUCCUAACAGUCGCAAG [Fam3.1 aminoacylation ribozyme variant]", 1.26),
]

====

# System: biotinyl-Leu-oxazolone
# protocol summary: self-aminoacylation, catalytic enhancement (BLO) (fold over background); higher = more active; k-Seq, kA / k0A0; sequences stand for … in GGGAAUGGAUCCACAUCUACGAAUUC…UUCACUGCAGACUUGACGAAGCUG
Variants at the floor of the assay were thinned out.
Classify as follows. Reported self-aminoacylation greater than or equal to 3: Condition met. Reported self-aminoacylation below: Condition not met.

# sequence text, answer label
measured = [
    ("AUUCACAUAGGUCAUCGGAUG [Fam2.2 aminoacylation ribozyme variant]", "Condition not met"),
    ("AUUAUCCUGGUCAUCGAGGGA [Fam2.1 aminoacylation ribozyme variant]", "Condition not met"),
    ("AUUCACCUAGGUCAUCGGGGG [Fam2.2 aminoacylation ribozyme variant]", "Condition met"),
    ("AUUCACCUCGGUAAUCGGGUG [Fam2.2 aminoacylation ribozyme variant]", "Condition met"),
    ("CCACACGUCUAGCAAUCGGUC [Fam1B.1 aminoacylation ribozyme variant]", "Condition not met"),
    ("AUUCAGCUAGGUCAUCGAGUG [Fam2.2 aminoacylation ribozyme variant]", "Condition not met"),
    ("AGACUUCAAACAAUCGGUCUG [Fam1A.1 aminoacylation ribozyme variant]", "Condition met"),
    ("AUGCACCUAGAUCAUCGGGUG [Fam2.2 aminoacylation ribozyme variant]", "Condition not met"),
    ("AUUCACUUAGGUCCUCGGGUG [Fam2.2 aminoacylation ribozyme variant]", "Condition met"),
]
